- Assay system: UniProt:Q99685
- Protocol description: In vitro competitive activity-based protein profiling (human proteomes)
- Assay type: biochemical
- Measurement conditions: 1 μM inhibitor, human proteome; read-out: MAGL % inh. 1 μM (human)
Test readout: inhibition at 1 µM

These solved cases illustrate the format of a correct answer.
[[record]]
compound = "O=C(O)COc1c(F)cccc1CN1CCN(C(=O)OC(C(F)(F)F)C(F)(F)F)CC1 [Example 11]"
endpoint_value = "50 to 75%"

[[record]]
compound = "CC(C)(COc1cc(C(F)(F)F)ccc1CN1CCN(C(=O)OC(C(F)(F)F)C(F)(F)F)CC1)C(=O)O [Example 4]"
endpoint_value = "> 75%"

[[record]]
compound = "CC(C)(Oc1cc(CN2CCN(C(=O)OC(C(F)(F)F)C(F)(F)F)CC2)cc(C(F)(F)F)c1)C(=O)O [Example 47]"
endpoint_value = "> 75%"

[[record]]
compound = "CC(C)(Oc1cc(C(F)(F)F)ccc1CN1CCN(C(=O)OC(C(F)(F)F)C(F)(F)F)CC1)C(=O)O [Example 3]"
endpoint_value = "> 75%"

[[record]]
compound = "CC(C)(Oc1cc(C#N)ccc1CN1CCN(C(=O)OC(C(F)(F)F)C(F)(F)F)CC1)C(=O)O [Example 26]"
endpoint_value = "> 75%"

[[record]]
compound = "C[C@@H](Oc1cc(C#N)ccc1CN1CCN(C(=O)OC(C(F)(F)F)C(F)(F)F)CC1)C(=O)O [Example 45]"
endpoint_value = "> 75%"


As a next step, examine the compound that follows.
Exercise: Data request, read-out inhibition at 1 µM, for C[C@H](Oc1cc(C#N)ccc1CN1CCN(C(=O)OC(C(F)(F)F)C(F)(F)F)CC1)C(=O)O [Example 46]
Key: > 75%

---

// reported inhibition at 5 mg/kg per item
- Assay system: MAGL (Mus musculus (Mouse))
- Sequence (O35678 whole entry): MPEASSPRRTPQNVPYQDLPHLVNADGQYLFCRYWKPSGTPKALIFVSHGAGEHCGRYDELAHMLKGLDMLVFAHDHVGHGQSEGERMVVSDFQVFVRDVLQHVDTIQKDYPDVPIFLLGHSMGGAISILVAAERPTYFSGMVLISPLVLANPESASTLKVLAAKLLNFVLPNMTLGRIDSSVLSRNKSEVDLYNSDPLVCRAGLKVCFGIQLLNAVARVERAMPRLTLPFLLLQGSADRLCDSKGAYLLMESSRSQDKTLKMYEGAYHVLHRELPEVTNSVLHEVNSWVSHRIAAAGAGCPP
- Protocol description: Mouse brain proteomes from inhibitor treated mice (oral gavage, ABPP analysis)
- Type: in vivo
- Measurement conditions: 5 mg/kg oral gavage, 4 h after administration, read-out: MAGL % inh. 5 mg/kg (mouse)

These solved cases illustrate the format of a correct answer.
[[record]]
structure = "CC(C)(COc1cc(CN2CCN(C(=O)OC(C(F)(F)F)C(F)(F)F)CC2)cc(C(F)(F)F)c1)C(=O)O"
endpoint_value = "> 75%"

[[record]]
structure = "CC(C)(Oc1cc(C(F)(F)F)ccc1CN1CCN(C(=O)OC(C(F)(F)F)C(F)(F)F)CC1)C(=O)NS(=O)(=O)C1CC1"
endpoint_value = "0 to 25%"

[[record]]
structure = "CC(C)(Oc1cc(C(F)(F)F)ccc1CN1CCN(C(=O)OC(C(F)(F)F)C(F)(F)F)CC1)C(=O)O"
endpoint_value = "> 75%"

[[record]]
structure = "Cc1ccc(CN2CCN(C(=O)OC(C(F)(F)F)C(F)(F)F)CC2)c(OC(C)(C)C(=O)O)c1Cl"
endpoint_value = "50 to 75%"

[[record]]
structure = "CC(C)(Oc1cc(Cl)ccc1CN1CCN(C(=O)OC(C(F)(F)F)C(F)(F)F)CC1)C(=O)O"
endpoint_value = "0 to 25%"

[[record]]
structure = "Cc1ccc(CN2CCN(C(=O)OC(C(F)(F)F)C(F)(F)F)CC2)c(OCC(C)(C)C(=O)O)c1F"
endpoint_value = "> 75%"


Exercise: Data request, read-out inhibition at 5 mg/kg, for CC(C)(Oc1c(CN2CCN(C(=O)OC(C(F)(F)F)C(F)(F)F)CC2)cccc1C(F)(F)F)C(=O)O
Key: > 75%

Exercise: Data request, read-out inhibition at 5 mg/kg, for CC(C)(COc1cc(C(F)(F)F)ccc1CN1CCN(C(=O)OC(C(F)(F)F)C(F)(F)F)CC1)C(=O)O
Key: > 75%

---

pIC50: −log10 of the molar value.
A short record of pIC50 observed with MAGL (Homo sapiens (Human), UniProt Q99685) follows.
Sequence (Q99685 whole entry): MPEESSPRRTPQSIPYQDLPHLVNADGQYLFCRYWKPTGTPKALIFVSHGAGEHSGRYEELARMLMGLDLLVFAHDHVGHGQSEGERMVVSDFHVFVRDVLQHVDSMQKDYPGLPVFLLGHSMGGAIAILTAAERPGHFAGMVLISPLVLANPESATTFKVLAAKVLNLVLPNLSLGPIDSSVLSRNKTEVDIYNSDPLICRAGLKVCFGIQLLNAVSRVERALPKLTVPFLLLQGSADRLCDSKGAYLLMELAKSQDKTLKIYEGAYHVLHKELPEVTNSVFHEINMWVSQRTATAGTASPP

Exercise: Data request, read-out pIC50, for O=C(O)COc1cc(CN2CCN(C(=O)OC(C(F)(F)F)C(F)(F)F)CC2)cc(OC(F)(F)F)c1
Key: > 7.30

Exercise: Data request, read-out pIC50, for CC(C)(Oc1cc(C(F)(F)F)ccc1CN1CCN(C(=O)OC(C(F)(F)F)C(F)(F)F)CC1)C(=O)NS(=O)(=O)C1CC1
Key: > 7.30

Exercise: Data request, read-out pIC50, for CC(C)(COc1cc(CN2CCN(C(=O)OC(C(F)(F)F)C(F)(F)F)CC2)cc(C(F)(F)F)c1)C(=O)O
Key: > 7.30

Exercise: Data request, read-out pIC50, for CC(C)(Oc1cc(C#N)ccc1CN1CCN(C(=O)OC(C(F)(F)F)C(F)(F)F)CC1)C(=O)O
Key: > 7.30

Exercise: Data request, read-out pIC50, for CC(C)(Oc1cc(C(F)(F)F)ccc1CN1CCN(C(=O)OC(C(F)(F)F)C(F)(F)F)CC1)C(=O)O
Key: > 7.30

Exercise: Data request, read-out pIC50, for CC(C)(Oc1cc(CN2CCN(C(=O)OC(C(F)(F)F)C(F)(F)F)CC2)cc(C(F)(F)F)c1)C(=O)O
Key: > 7.30

Exercise: Data request, read-out pIC50, for CC(C)(Oc1cc(Cl)ccc1CN1CCN(C(=O)OC(C(F)(F)F)C(F)(F)F)CC1)C(=O)O
Key: > 7.30
